Attribution: patent US20100028485A1

Recorded EG V activity, Substrate + reagent (control = 100.0) values for a group of compounds are listed next.
System: EG V
Assay: Effects of metal ions, chemical modification reagents, detergents and potential inhibitors on EG V; also: test concentration or dose not given here
Type: biochemical, Talaromyces emersonii
Conditions: Preincubation of substrate with reagent for 30 min (50 C) prior to addition of enzyme
Method: […] Activity was expressed as a % relative to a control (no metal ion present in incubation mixture). […]
Reply with the value as a number alone.

N[C@@H](CS)C(=O)O [Cysteine]
237.8
[Na+].[O-][I+3]([O-])([O-])[O-] [Sodium periodate]
283.3
O[C@H](CS)[C@@H](O)CS [Dithioerythritol]
271.9
O=C(O)c1cc[c]([Hg][Cl])cc1 [p-Chloromercuribenzoate]
89.7
C[S+](C)[O-] [Dimethylsuphoxide]
93.6

Per the records, this compound ( O=Cc1ccccc1C=O [o-Phthaldialdehyde] ) has EG V activity, Substrate + reagent (control = 100.0) equal to 94.6
